system: DIV30; assay: qHTS profiling for inhibitors of Plasmodium falciparum proliferation (AID 504749); also: nearly all actives have a fitted effect of over 60% in size; details: P. falciparum in erythrocytes, SYBR Green DNA, 72 h; series mostly up to 12.8 µM
Records with an inconclusive call do not appear. The source made the active and inactive calls. Calls follow the shape of the dose curve; as a rule, active = well fitted inhibition curve with a large enough effect; inconclusive = small, poorly fitted or top-dose-only effect; inactive = flat fitted curve, though single readings scatter.
Possible outcomes: Y = active, N = inactive

MOLECULE	ASSIGNED CATEGORY
CCN[C@@H]1C[C@H](C)S(=O)(=O)c2sc(S(N)(=O)=O)cc21	N
COc1ccc(C[C@@H]2c3cc(OC)c(OC)cc3CC[N@+]2(C)CCC(=O)OCCCCCOC(=O)CC[N@@+]2(C)CCc3cc(OC)c(OC)cc3[C@H]2Cc2ccc(OC)c(OC)c2)cc1OC	N
CC(C)(C)NC[C@H](O)c1cc(O)cc(O)c1	N
CN1[C@@H]2CC[C@H]1CC(OC(=O)[C@@H](O)c1ccccc1)C2 (stereo partly specified)	N
CCN(CC)CCC[C@H](C)Nc1c2ccc(Cl)cc2nc2ccc(OC)cc12	Y
C[n+]1ccccc1/C=N\O	N

====

# key: entry, value: activity change, negative = inhibition
assay: AP1 Signaling Pathway (AID 357); conditions: ME-180 AP-1-bla reporter, EGF-induced, beta-lactamase ratio, 5 h; at 17.2 µM (top of the series);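 also: ME-180 reporter cells stimulated with EGF at its EC50 level; % is scaled to controls: 0 for no effect and ±100 for the full control effect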
Records with an inconclusive call do not appear.
READOUT TYPE: activity change, negative = inhibition (%)

> print(dat)
                            molecule.smiles  experimental.result
1           COCCc1ccc(OC[C@H](O)CNC(C)C)cc1                 15.8
2  C[C@@]12CC[C@@H]3c4ccc(O)cc4CC[C@H]3[C@H]1CC[C@H]2O                 -5.6
3              C[C@@H](C[N+](C)(C)C)OC(N)=O                 2.54

====

# key: entry, value: activity, negative = inhibition
test: Stat Signaling Pathway (AID 446); conditions: ME-180 (cervical carcinoma) SIE beta-lactamase reporter, IL-6 stimulated, 5 h; at 7.69 µM (top of the series) unless noted;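 also: ME-180 cervical cancer cells given 40 pM IL-6 alongside compound; SIE-controlled beta-lactamase reporter measured as 460/530 nm FRET emission ratio; % is scaled to controls: 0 for no effect and ±100 for the full control effect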
Records with an inconclusive call do not appear.
READOUT TYPE: activity, negative = inhibition (%)

> print(dat)
                             molecule.smiles                     readout.type  uom  experimental.result
 1    COCC(=O)N1CCC[C@@]2(CCN(Cc3nccs3)C2)C1  activity, negative = inhibition    %                  4.7
 2  O=C(c1ccncc1)N1CCC2(CC1)CCN(c1ccc(-c3ccccc3)cc1)CC2  activity, negative = inhibition    %                -9.73
 3  COc1cccc(Nc2ncc3nc(-c4ccc(F)cc4)c(=O)n(C[C@H]4CCCO4)c3n2)c1  activity, negative = inhibition    %                -5.57
 4  O=C(Nc1ccccc1)N1CCCC2(CCN(S(=O)(=O)c3ccccc3)CC2)C1  activity, negative = inhibition    %                -7.13
 5          COC(=O)N1CCC2(CC1)CN(c1ccncc1)C2  activity, negative = inhibition    %                -7.68
 6  COCC(=O)N1CCC2(CCCN(C(=O)Nc3ccccc3)C2)CC1  activity, negative = inhibition    %                 3.14
 7  Cc1noc(C)c1C(=O)N1CCC2(CC1)CCN(c1ccncc1)CC2  activity, negative = inhibition    %                 8.12
 8  COc1ccc(C(=O)N2CCC3(CCCN(Cc4ccccc4)C3)CC2)cc1  activity, negative = inhibition    %                -10.9
 9  O=C(Nc1cccc(F)c1)N1CC[C@@]2(CCCN(C(=O)c3csnn3)C2)C1  activity, negative = inhibition    %                -1.73
10             c1cncc(-c2nccc(-n3ccnc3)n2)c1  activity, negative = inhibition    %                -2.73
11  N#Cc1ccc(CN2CCCC3(CCN(C(=O)c4ccco4)CC3)C2)cc1  activity, negative = inhibition    %                 4.81
